Cited source: ChEMBL document CHEMBL3045213

Test system: Colletotrichum gloeosporioides
Assay: Antifungal activity against Colletotrichum gloeosporioides after 48 hr by 96-well microtiter based microdilution method
Assay type: functional, organism-based
Measured IC50 of individual entries
Report the figure in nM without appending any unit label.

> print(dat)
               smiles.code  experimental.result
1  C=CC#Cc1ccc(-c2cccs2)s1                 4200

Now for a further compound.
Query: May I ask what IC50 has been recorded for `CC#CC#Cc1ccc(C#CCCO)s1` ?
Response: 2600

---

Test system: Fusarium oxysporum
Assay: Antifungal activity against Fusarium oxysporum after 72 hr by 96-well microtiter based microdilution method
Type: functional, organism-based
Observation type: pIC50
Lab note: report pIC50 as minus log10 of the concentration in molar units, number only.

> print(dat)
                 compound  observation.type  experimental.result
1  CC#CC#Cc1ccc(C#CCCO)s1             pIC50                 4.70

Now for a further compound.
Query: Param readout = pIC50; param system = Fusarium oxysporum; param query = O=C1C2CC=CCC2C(=O)N1SC(Cl)(Cl)Cl (centres undefined) [CAPTAN] ; response: value
Response: 5.24

---

Measured pIC50 of individual entries
System: Colletotrichum fragariae
Assay: Antifungal activity against Colletotrichum fragariae after 72 hr by 96-well microtiter based microdilution method
Assay type: functional, organism-based
Lab note: report pIC50 as minus log10 of the concentration in molar units, number only.

Query: May I ask what pIC50 has been recorded for `CC#CC#Cc1ccc(C#CCCO)s1` ?
Response: 4.90

---

Measured pIC50 of individual entries
Tested on: Botrytis cinerea
Assay: Antifungal activity against Botryotinia fuckeliana after 72 hr by 96-well microtiter based microdilution method
Assay type: functional, organism-based
pIC50: −log10 of the molar value.

> print(dat)
                                   molecule  measurement.target  observation.type  experimental.result
1               c1csc(-c2ccc(-c3cccs3)s2)c1    Botrytis cinerea             pIC50               < 4.30
2                    CC#CC#Cc1ccc(C#CCCO)s1    Botrytis cinerea             pIC50                 4.39
3  O=C1C2CC=CCC2C(=O)N1SC(Cl)(Cl)Cl (centres undefined)    Botrytis cinerea             pIC50               > 5.80

Now for a further molecule.
Query: May I ask what pIC50 has been recorded for `C=CC#Cc1ccc(-c2cccs2)s1` ?
Response: < 4.30

---

Test system: Colletotrichum fragariae
Assay: Antifungal activity against Colletotrichum fragariae after 72 hr by 96-well microtiter based microdilution method
Assay type: functional, organism-based
Measured pIC50 of individual entries
Lab note: report pIC50 as minus log10 of the concentration in molar units, number only.

Here are 2 compounds together with their reported answers.
> print(dat)
                                   compound        measurement.target  observation.type  experimental.result
1  c1csc(-c2ccc(-c3cccs3)s2)c1 [ALPHA-TERTHIENYL]  Colletotrichum fragariae             pIC50                 5.05
2  O=C1C2CC=CCC2C(=O)N1SC(Cl)(Cl)Cl (stereo not drawn) [CAPTAN]  Colletotrichum fragariae             pIC50                 5.68

Query: Param readout = pIC50; param system = Colletotrichum fragariae; param query = `C=CC#Cc1ccc(-c2cccs2)s1` ; response: value
Response: 4.34
